Kindly supply the reported inhibition values for the records listed here.
Experiment: inhibitors of E-selectin induction by TNFa, primary screen, imaging, HUVEC, immunofluorescence, MLSMR starter and 10KST1 sets (AID 487);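 also: signal is fraction of cell area covered by stained E-selectin grains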
Settings: HUVEC TNFalpha-induced E-selectin immunofluorescence imaging, at 2 µM; stronger effect = higher value
Answers are plain numbers, in %.

> print(dat)
                                   molecule  measurement.kind  meas.value
1  COc1ccc(-c2nc3c(c(=O)n(C)c(=O)n3C)n2CC2CC(c3ccccc3)=NO2)cc1OC (stereo unspecified)        inhibition        -3.5

Each molecule below has a recorded value; state its inhibition.
1. Cc1ccc(S(=O)(=O)N2CCN(S(=O)(=O)N(C)C)CC2)cc1
2. CNC(=O)CCn1nc(-c2ccccc2)c2ccccc2c1=O
3. N#Cc1c(NCCCO)nc(-c2ccccc2)c2c1CCCC2
4. CC(C)c1nnc(NC(=O)c2ccc(N3C(=O)CCC3=O)cc2)s1
5. O=C(COc1ccc(=O)n(-c2ccccc2)n1)Nc1ccccc1
6. CCCCc1nccn1CCn1ccnc1CCCC
7. N#Cc1c2c(c(-c3ccccc3)[nH]c1=O)CCCC2
8. c1ccc2c(Cn3ccnc3)c[nH]c2c1

[8.9, -67.9, -60.9, -36.4, 23.8, -75, -88.6, -12.3]

// for each molecule below, give its inhibition
1. CCOc1cc2[nH]c(=O)n(CCC(=O)NCCc3ccc(OC)c(OC)c3)c(=O)c2cc1OCC
2. c1ccc2c(c1)CNC1(CCCCC1)C2

[-19.2, -2.1]

###

Target: Muscarinic acetylcholine receptor M4 (Homo sapiens)
Test: compounds altering M4/GIRK thallium flux, either direction, primary screen, M4 allosteric agonist project, cell-based, HEK293 M4/GIRK, BTC-AM (AID 625);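 also: thallium influx through GIRK channels coupled to M4 in HEK293 cells with BTC-AM dye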
Conditions: at 10 µM, actives lie on both sides
# if measured fluorescence slope < 0.005: MET  # else: NOT MET

> print(dat)
                                   compound                         target.under.test  label.value
1  CCCCN(C(=O)CCC(=O)O)C1CC(=O)N(c2ccc(OCCC)cc2)C1=O (stereo unspecified)  Muscarinic acetylcholine receptor M4 (Homo sapiens)          MET

Here is the next item to consider.
Does CCOC(=O)c1[nH]c2ccccc2c1NC(=O)CN(C)C have fluorescence slope strictly under 0.005? NOT MET

###

Experiment: inhibitors of poly I:C-induced TLR3 signaling, primary screen, cell-based, poly I:C stimulus, luciferase, 10K MLSCN set (AID 602277)
Conditions: HEK293-TLR3 RL24 IRF3 luciferase reporter, at 10 µM, stronger effect = higher value
Returns one of true (1) or false (0); true (1) when inhibition is >= 20%.

> print(dat)
                                   compound  label.value
1  O=C1OCc2cc(NC(=O)C3CCCO3)ccc21 (stereo not given)    false (0)
2         O=C(OCc1cc2ccccc2[nH]c1=O)c1ccco1     true (1)
3  COC(=O)c1c(NC(=O)CSc2nnc(-c3cccnc3)n2Cc2ccco2)sc(C)c1C    false (0)

Now, please, on to the next compound.
In plain terms: is recorded inhibition at least 20% for COCCn1c(SCC(=O)N2CCc3ccccc32)nc2c(c1=O)SC(C)C2 (stereo not given) ? true (1)
